# target.system: T1, cynomolgus PD-L1, his tagged (cPD-L1-his) (cynomolgus (Macaca fascicularis), UniProt G7PSE7 19-238)
# T1 construct: also called cyPD-L1-His; Cyno PD-L1
# T1 sequence (G7PSE7 entry or part of it limits assumed, form in doubt): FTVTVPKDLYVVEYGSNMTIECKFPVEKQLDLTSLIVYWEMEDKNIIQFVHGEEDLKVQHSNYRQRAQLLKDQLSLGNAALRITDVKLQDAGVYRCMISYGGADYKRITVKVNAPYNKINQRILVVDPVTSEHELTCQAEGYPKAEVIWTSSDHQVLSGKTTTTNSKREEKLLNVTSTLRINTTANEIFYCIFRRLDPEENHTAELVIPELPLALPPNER
# test.details: BLI (ForteBio Octet), IgG on AHC sensor, cPD-L1-his analyte, 1:1 fit
quantity: pKd
Schema: pKd number; meaning minus log10 of the concentration expressed in molar units.

Guide cases for pKd, answers given:
binder	quantity	obs.value
769-hIgG1 (chimeric PAL769) (antibody, V domains shown) VH: EVQLQESGAELVKPGASVTLSCTASGFNIKDTYMHWVKQRPEQGLEWIGRIDPANDNTKYDPKFQDKATITADTSSDTAYLRLSSLTSEDTAVYYCAREGYGGSYGEGYWGQGTTLTVSS VL: SIVMTQTPKFLLVSAGDRVTITCKASQSVSNDVIWYQQKPGQSPKLLIYYASIRFTGVPDRFAGSGYGTDFTFTINTVQAEDLAVYFCQQDYNSPWTFGGGTKLEIK	pKd	9.26
785-hIgG1 (chimeric PAL785) (antibody, V domains shown) VH: EVQLQESGPELVKPGTSVKMSCKASGYTFTSYVMHWVKQRPGQGLEWIGYINPYNDGSKYNEKFKGKATLTSDTSSSTAYMELSSLTSEDSAVYYCAKQTLDFWGQGTSVTVST VL: DIVLTQSPASLAVSLGQRATISCRASESVEFYGTTLMQWYQQKPGQPPKLLIYAASNVESGVPARFSGSGSGTDFSLNIHPVEEGDIGMYFCQQSRKVPYTFGGGTKLEIK	pKd	9.14

Could you tell me which pKd is on file for 771-hIgG1 (chimeric PAL771) (antibody, V domains shown) VH: EVQLQESGAELVKPGASVKLSCTASGFNIKDTYMHWVKQRPEQGLEWIGRIDPANGNTKYDPKFPGKATITADTSSNTAYLQLSSLTSEDAAVYYCARPFNYRFYDVYYFDYWGQGTTLTVST VL: QIVLTQSPAIMSASPGEKVTMTCSASSSVSYMYWYQQKPGSSPRLLIYDTSNLASGVPLRFSGSGSGTSYSLTLSRMEAEDAATYYCQQWSTYPLTFGAGTKLELK ?
8.95
